- PROTOCOL_NOTES: ATG_BRE_CIS: Attagene CIS-FACTORIAL HepG2 Assay for human Bone Morphogenetic Protein (BMP) Response Element (BRE) (AID 2282933)
- TEST_CONTEXT: HepG2 BMP response element reporter, Attagene transcription factor profiling; actives raise or lower the signal
Calls of active or inactive are those of the source. Rule for the calls: active = hit-call score of the fitted dose curve at least 0.9, where 1 is the maximum; inactive = score below 0.9.
TEST_READOUT: AC50

Some compounds with recorded AC50:
{"COMPOUND": "CON=C(C(=O)OC)c1ccccc1CON=C(C)c1cccc(C(F)(F)F)c1", "AC50": "25 µM (active)"}
{"COMPOUND": "CCCSP(=O)(OCC)SCCC", "AC50": "inactive"}
{"COMPOUND": "C#CCC1=C(C)C(OC(=O)C2C(C=C(C)C)C2(C)C)CC1=O (stereo not given)", "AC50": "9.01 µM (active)"}
{"COMPOUND": "CCCCN(CC)c1c([N+](=O)[O-])cc(C(F)(F)F)cc1[N+](=O)[O-]", "AC50": "inactive"}

Exercise: I'd like to know its AC50. The compound in question is `C[N+]1(C)CCCCC1`
Solution: inactive

Exercise: Using the record for `COc1cc(OC)nc(Sc2cccc(Cl)c2C(=O)O)n1` , report its AC50.
Solution: inactive

Exercise: Which AC50 is reported for this compound? `Cc1cc(C2CC2)nc(Nc2ccccc2)n1`
Solution: 33.5 µM (active)

Exercise: Reported AC50, compound `CCOP(=S)(OCC)Oc1ccc2c(C)c(Cl)c(=O)oc2c1` : ____
Solution: inactive

Exercise: Name the reported AC50 value associated with the compound `O=C(O)c1cc(Oc2ccc(C(F)(F)F)cc2Cl)ccc1[N+](=O)[O-]`
Solution: inactive

Exercise: Which measured AC50 value corresponds to CC(C)=CC1C(C(=O)OCN2C(=O)C3=C(CCCC3)C2=O)C1(C)C (stereo not given) ?
Solution: 50 µM (active)

Exercise: // returns reported AC50 for input `CCCCOC(=O)c1ccccc1C(=O)O`
Solution: inactive

Exercise: Look up AC50 for this compound: CCCSP(=O)(OCC)Oc1ccc(Br)cc1Cl (stereo not given)
Solution: inactive

Exercise: Look up AC50: `CCCCOC(=O)[C@@H](C)Oc1ccc(Oc2ccc(C#N)cc2F)cc1`
Solution: inactive

Exercise: What does the record list as AC50 for `CCOP(=O)(OCC)Oc1cc(C)nc(C(C)C)n1` ?
Solution: inactive

Exercise: // lookup AC50 for CCc1cnc(C2=NC(C)(C(C)C)C(=O)N2)c(C(=O)O)c1 (stereo not given)
Solution: inactive
